These measurements were taken from PubChem BioAssay (NCI).

Test system: DMS 114 small cell lung
PROTOCOL_DESCRIPTION: NCI tumour cell line growth inhibition, 48 h
OUTCOME_MEASURE: TGI (µM)
One number for each entry, in µM.

COMPOUND: COCC(=O)[C@]1(O)Cc2c(O)c3c(c(O)c2[C@@H](OC2CC(N)C(O)C(C)O2)C1)C(=O)c1c(OC)cccc1C3=O (some centres undefined)
TGI (µM): 0.477

Now take the following compound into account.
Ask: Returns the measured TGI for the input compound. Input: Cn1c2ccccc2c2cc(-c3ccccc3)c3c(c21)C(=O)C=CC3=O
Reply: 19.8

###

Give TGI for every item shown.
Tested on: RXF 393 renal
PROTOCOL_DESCRIPTION: NCI tumour cell line growth inhibition, 48 h
Answers are plain numbers, in µM.

COMPOUND: Oc1[nH]c2ccccc2c1N=NC(=S)N1CCCCCC1
ASSAY_RESULT: 2.43

Kindly give each listed record's TGI.
1. ClCc1c(-c2ccccc2)nn(-c2ccccc2)c1CCl
2. CSc1nc(Cl)c(Br)c(Nc2c[nH]c(=O)[nH]c2=O)n1
3. O=C1C2C(C(=O)[N]1[Hg][c]1ccccc1)C1(Cl)C(Cl)=C(Cl)C2(Cl)C1(Cl)Cl (stereo unspecified)
4. COc1ccc(-c2nnc3n(C)c(=O)c4ccccc4n23)cc1O
5. C[C@@H]1CN(Cc2ccc(/C=C/c3n[nH]c4ccc5nc(-c6cn[nH]c6C(F)(F)F)c6c(c5c34)CCCC6)cc2)C[C@H](C)O1
6. CC(=O)Oc1ccc(OC(Oc2ccccc2)c2ccccc2)cc1 (stereo unspecified)
7. CCCCCC(/C=C/[C@@H]1CC(=O)C[C@H]1O[Si](C)(C)C(C)(C)C)OCOCCOC (stereo partly specified)
8. C=C1C(=O)[C@]23[C@H](O)[C@H]1CC[C@H]2[C@@]12CO[C@@]3(O)C[C@@H]1C(C)(C)CC[C@@H]2O

Reply:
[28.3, 45.4, 1.59, 6.21, 5.79, 57.1, 5.45, 11.5]

Kindly give each listed record's TGI.
1. O=C1C=C(N2CC2)c2ccccc2C1=O
2. COc1cc(Nc2ncc3c(n2)-c2ccc(Cl)cc2C(c2c(F)cccc2OC)=NC3)ccc1C(=O)O

Reply:
1. 3.08
2. 13.1

###

Test system: NCI-H226 lung
PROTOCOL_DESCRIPTION: NCI tumour cell line growth inhibition, 48 h
Give TGI for every item shown.
Give bare numbers, in µM.

STRUCTURE: O=C(/C=C/c1cccs1)c1ccsc1
SCALE_UNIT: µM
ASSAY_RESULT: 48.5
//
STRUCTURE: c1ccc(Cn2cc3c(c2)-c2oncc2CC3)cc1
SCALE_UNIT: µM
ASSAY_RESULT: 99.1
//
STRUCTURE: CC1=CC(=O)c2cccc(NC3=NCCO3)c21
SCALE_UNIT: µM
ASSAY_RESULT: 87.2

Now take the following compound into account.
Ask: Returns the measured TGI for the input compound. Input: COc1cc(C(=O)/C=C/c2c(-c3ccc(F)cc3)nc3sccn23)cc(OC)c1OC
Reply: 9.99

###

Test system: DU-145 prostate
PROTOCOL_DESCRIPTION: NCI tumour cell line growth inhibition, 48 h
Give GI50 for every item shown.

// solved cases for GI50 follow
MOLECULE: COc1cc(/C=C/C(=O)c2c(C)n([O-])c3cc(C)c(C)cc3[n+]2=O)cc(OC)c1OC
GI50: 13100 nM

MOLECULE: CCOC(=O)Nc1nc2c(F)c(F)c(F)cc2s1
GI50: 75100 nM

MOLECULE: O=C1C=C(N2CC2)c2ccccc2C1=O
GI50: 1340 nM

MOLECULE: O=C1C2C(C(=O)[N]1[Hg][c]1ccccc1)C1(Cl)C(Cl)=C(Cl)C2(Cl)C1(Cl)Cl (stereo unspecified)
GI50: 1660 nM

MOLECULE: c1ccc(Cn2cc3c(c2)-c2oncc2CC3)cc1
GI50: 977 nM

MOLECULE: COc1cc(C(=O)/C=C/c2c(-c3ccc(F)cc3)nc3sccn23)cc(OC)c1OC
GI50: 2520 nM

Kindly give each listed record's GI50.
1. Cc1cc(-c2ccccc2)c(C)n1Cc1ccc(Cl)cc1
2. NC(=O)Nc1ccc2ncnc(Nc3ccc(Cl)cc3)c2c1
3. Cc1cc(C)cc(Nc2nccc(-c3c(-c4ccc(F)cc4)ncn3C3CCNCC3)n2)c1
4. COc1ccc2nc(-c3ccccc3)cc(Nc3ccc(/C(C)=N/O)cc3)c2c1
5. Oc1c(I)cc(I)cc1CNCCCN(Cc1ccccn1)Cc1ccccn1

Reply:
1: 6870 nM; 2: 4210 nM; 3: 1460 nM; 4: 2800 nM; 5: 1510 nM

###

Tested on: NCI/ADR-RES ovarian
PROTOCOL_DESCRIPTION: NCI tumour cell line growth inhibition, 48 h
Give TGI for every item shown.
Give bare numbers, in µM.

// solved cases for TGI follow
MOLECULE: N/C(=N\OC(=O)NC(Cl)=C(Cl)Cl)c1cc(C(F)(F)F)cc(C(F)(F)F)c1
OUTCOME_MEASURE: TGI
ASSAY_RESULT: 47.2
//
MOLECULE: CN(C)CCCNC(=O)c1cc2c3ccccc3[nH]c2c2ncccc12
OUTCOME_MEASURE: TGI
ASSAY_RESULT: 66.1
//
MOLECULE: Cc1ccc(C(=O)Nc2ccc(CN3CCN(C)CC3)c(C(F)(F)F)c2)cc1C#Cc1cncc2ncccc12
OUTCOME_MEASURE: TGI
ASSAY_RESULT: 16

Ask: Returns the measured TGI for the input molecule. Input: CC(=O)Oc1ccc(OC(Oc2ccccc2)c2ccccc2)cc1 (stereo not given)
Reply: 90.3

###

Tested on: XF 498 CNS
PROTOCOL_DESCRIPTION: NCI tumour cell line growth inhibition, 48 h
OUTCOME_MEASURE: TGI

// solved cases for TGI follow
MOLECULE: O=C1c2c(c3c4ccccc4n4c3c3c2c2ccccc2n3C/C=C\C4)C(=O)N1Cc1ccccc1
TGI: 85.9 µM
--
MOLECULE: CCOC(=O)CNC(SC)=C(C#N)C#N
TGI: > 100 µM
--
MOLECULE: CCCNC(=O)c1cc2ccccc2cc1C(=O)OC
TGI: > 100 µM
--
MOLECULE: COc1ccc(C2C(C(=O)O)=C(COC(C)=O)Oc3cc4c(cc32)OCO4)cc1 (configuration not stated)
TGI: > 100 µM
--
MOLECULE: CC1SC2=NC3=C(c4ccccc4C3=O)C(c3ccc(Br)cc3)N2C1=O (configuration not stated)
TGI: > 100 µM

Kindly give each listed record's TGI.
1. CC1=C(C(=O)Nc2ccccc2C)C(c2ccc(N(C)C)cc2)C(C(=O)Nc2ccccc2C)=C(C)N1
2. CCC[CH2][Sn]1([CH2]CCC)[O]C(=O)C[S]1
3. C#CCOCn1cnc2ncnc(Cl)c21

Reply:
1. > 100 µM
2. 2.74 µM
3. > 100 µM

###

Tested on: NCI/ADR-RES ovarian
PROTOCOL_DESCRIPTION: NCI tumour cell line growth inhibition, 48 h
OUTCOME_MEASURE: GI50

STRUCTURE: CN(C)CCCNC(=O)c1cc2c3ccccc3[nH]c2c2ncccc12
GI50: 19200 nM
//
STRUCTURE: CC(=O)OCCC/C(=C\c1ccc2ccccc2c1)[N+](=O)[O-]
GI50: 2690 nM
//
STRUCTURE: COc1cc(C(=O)/C=C/c2c(-c3ccc(F)cc3)nc3sccn23)cc(OC)c1OC
GI50: 2050 nM
//
STRUCTURE: O=C1NC(=O)c2c1c1c3ccccc3ccc1c1[nH]c3ccc(Br)cc3c21
GI50: 1530 nM
//
STRUCTURE: Cc1cc(-c2ccccc2)c(C)n1Cc1ccc(Cl)cc1
GI50: 3640 nM
//
STRUCTURE: Cc1cc(N(CCCNc2ccnc3cc(Cl)ccc23)Cc2cccs2)nc(Cl)n1
GI50: 2640 nM

Kindly give each listed record's GI50.
1. Cc1cc[c-]cc1.Fc1c[c-]c(-c2ccccn2)c(F)c1.N#CCC[PH+](CCC#N)c1ccccc1.[Pt+2]
2. Clc1ccccc1-c1nc2ccccc2[nH]1

Reply:
4240 nM
> 100000 nM

###

Test system: SF-295 CNS
PROTOCOL_DESCRIPTION: NCI tumour cell line growth inhibition, 48 h; in the data active = GI50 below about 0.43 µM; inactive = the rest
# valid calls are active, inactive; nothing else

Ask: Recorded call for Clc1ccccc1-c1nc2ccccc2[nH]1 ?
Reply: inactive

Ask: Recorded call for Nc1c(C(=O)Nc2cccc3ccccc23)sc2nc3c(cc12)CCCC3 ?
Reply: inactive

Ask: Recorded call for C[C@@H]1CN(Cc2ccc(/C=C/c3n[nH]c4ccc5nc(-c6cn[nH]c6C(F)(F)F)c6c(c5c34)CCCC6)cc2)C[C@H](C)O1 ?
Reply: inactive

Ask: Recorded call for CCN(CC)c1ccc(/C=C/C(=O)c2cccc(NS(C)(=O)=O)c2)cc1 ?
Reply: inactive

Ask: Recorded call for O=C1C2C(C(=O)[N]1[Hg][c]1ccccc1)C1(Cl)C(Cl)=C(Cl)C2(Cl)C1(Cl)Cl (centres undefined) ?
Reply: inactive

Ask: Recorded call for Cc1c(N2C(=O)/C(=C\c3ccc(O)cc3)N=C2c2ccccc2)c(=O)n(-c2ccccc2)n1C ?
Reply: inactive

Ask: Recorded call for c1ccc(-c2n(Cc3ccc4ccccc4n3)c3ccccc3[n+]2Cc2ccc3ccccc3n2)cc1 ?
Reply: active

Ask: Recorded call for Oc1c(I)cc(I)cc1CNCCCN(Cc1ccccn1)Cc1ccccn1 ?
Reply: inactive

Ask: Recorded call for COc1cc(/C=C/C(=O)c2c(C)n([O-])c3cc(C)c(C)cc3[n+]2=O)cc(OC)c1OC ?
Reply: inactive
